Test: Acute toxicity by the intravenous route in the mouse
Settings: in vivo, female mice, 14 days after treatment
Experimental: As for its toxicity, for the determination of which experiments were carried out on two animal species, namely the rat of the OFA strain and the mouse of the OF1 strain, by two routes of administration namely the oral route and the intravenous route, the results obtained were as follows: ACUTE TOXICITY OF THE PRODUCT S.C.S. 149 ADMINISTERED BY THE INTRAVENOUS ROUTE IN THE MOUSE ACUTE TOXICITY OF THE S.C.S. 149 PRODUCT ADMINISTERED BY THE INTRAVENOUS ROUTE IN THE MOUSE LD 50 14 days after treatment. […]

- compound: "Cc1ccccc1OCC(O)CN(C(=N)NC(=O)c1ccccc1)C(C)C (stereo not shown)"
  LD50 at 336 h, mg/kg: 38.1

* * *

test: Acute toxicity by the intravenous route in the rat; type: in vivo; conditions: in vivo, iv, LD 50

- compound: "Cc1ccccc1OCC(O)CN(C(=N)NC(=O)c1ccccc1)C(C)C (stereo not shown)"
  reading_unit: "mg/kg"
  LD50 at 48 h: 35.3

* * *

assay: Acute toxicity by the intravenous route in the mouse; conditions: in vivo, female mice, 48 hours after treatment

- molecule: "Cc1ccccc1OCC(O)CN(C(=N)NC(=O)c1ccccc1)C(C)C (stereo not shown)"
  reading_unit: "mg/kg"
  LD50 at 48 h: 38.8
